Target: human progesterone receptor A (Homo sapiens)
Assay: Progesterone-receptor-antagonistic action in stably transfected SK-N-MC cells, MTV-LUC reporter (PR-A)
Conditions: antagonistic potency vs 0.1 nmol/l promegestone, 24 hours, luciferase
pIC50: −log10 of the molar value.
We begin with a simple list: items and their reported pIC50.

SMILES	pIC50
COc1ccc(NC(=O)c2ccc([C@H]3C[C@@]4(C)[C@@H](CC[C@@]4(O)C(F)(F)C(F)(F)F)[C@@H]4CCC5=CC(=O)CCC5=C43)cc2)cc1	7.94
C[C@]12C[C@H](c3ccc(C(=O)N4CCN(S(C)(=O)=O)CC4)cc3)C3=C4CCC(=O)C=C4CC[C@H]3[C@@H]1CC[C@@]2(O)C(F)(F)C(F)(F)F	8.20
C[C@]12C[C@H](c3ccc(C(=O)N4CCN(CCN5CCCC5)CC4)cc3)C3=C4CCC(=O)C=C4CC[C@H]3[C@@H]1CC[C@@]2(O)C(F)(F)C(F)(F)F	6.18
C[C@]12C[C@H](c3ccc(C(=O)NCCN4CCCC4)cc3)C3=C4CCC(=O)C=C4CC[C@H]3[C@@H]1CC[C@@]2(O)C(F)(F)C(F)(F)F	7.68

====

Target: human progesterone receptor A (Homo sapiens, UniProt P06401)
Sequence (P06401 165-933): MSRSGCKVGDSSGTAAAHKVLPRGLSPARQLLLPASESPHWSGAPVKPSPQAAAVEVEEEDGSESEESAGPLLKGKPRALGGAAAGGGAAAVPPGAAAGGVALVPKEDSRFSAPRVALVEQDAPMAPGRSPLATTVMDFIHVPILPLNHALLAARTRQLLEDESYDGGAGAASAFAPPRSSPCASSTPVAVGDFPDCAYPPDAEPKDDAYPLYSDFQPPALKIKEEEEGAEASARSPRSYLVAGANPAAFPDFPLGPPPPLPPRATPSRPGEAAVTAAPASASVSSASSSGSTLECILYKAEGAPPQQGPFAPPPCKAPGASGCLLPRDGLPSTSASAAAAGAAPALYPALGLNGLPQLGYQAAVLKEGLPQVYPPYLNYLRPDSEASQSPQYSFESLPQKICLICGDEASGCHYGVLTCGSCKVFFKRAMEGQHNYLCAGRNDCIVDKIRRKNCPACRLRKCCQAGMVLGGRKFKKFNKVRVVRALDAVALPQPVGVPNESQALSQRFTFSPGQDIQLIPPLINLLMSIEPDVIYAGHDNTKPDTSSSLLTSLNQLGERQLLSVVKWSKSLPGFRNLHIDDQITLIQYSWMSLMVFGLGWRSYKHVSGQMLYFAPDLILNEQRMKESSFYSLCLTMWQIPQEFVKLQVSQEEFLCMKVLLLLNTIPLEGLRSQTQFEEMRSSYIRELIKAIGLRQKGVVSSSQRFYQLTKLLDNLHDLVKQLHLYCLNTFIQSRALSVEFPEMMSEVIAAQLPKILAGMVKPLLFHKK
Test: Progesterone-receptor-antagonistic action in stably transfected SK-N-MC cells, MTV-LUC reporter (PR-A)
Details: antagonistic potency vs 0.1 nmol/l promegestone, 24 hours, luciferase
pIC50: −log10 of the molar value.

SMILES	pIC50
COc1ccc(CNC(=O)c2ccc([C@H]3C[C@@]4(C)[C@@H](CC[C@@]4(O)C(F)(F)C(F)(F)F)[C@@H]4CCC5=CC(=O)CCC5=C43)cc2)cc1	7.47
CN1CCN(C(=O)c2ccc([C@H]3C[C@@]4(C)[C@@H](CC[C@@]4(O)C(F)(F)C(F)(F)F)[C@@H]4CCC5=CC(=O)CCC5=C43)cc2)CC1	7.62
COC(=O)c1ccc(NC(=O)c2ccc([C@H]3C[C@@]4(C)[C@@H](CC[C@@]4(O)C(F)(F)C(F)(F)F)[C@@H]4CCC5=CC(=O)CCC5=C43)cc2)cc1	8.73
CCNC(=O)c1ccc([C@H]2C[C@@]3(C)[C@@H](CC[C@@]3(O)C(F)(F)C(F)(F)F)[C@@H]3CCC4=CC(=O)CCC4=C32)cc1	8.85
C[C@]12C[C@H](c3ccc(C(=O)N4CCN(C(=O)c5ccccc5)CC4)cc3)C3=C4CCC(=O)C=C4CC[C@H]3[C@@H]1CC[C@@]2(O)C(F)(F)C(F)(F)F	8.57
CN(C)CCN1CCN(C(=O)c2ccc([C@H]3C[C@@]4(C)[C@@H](CC[C@@]4(O)C(F)(F)C(F)(F)F)[C@@H]4CCC5=CC(=O)CCC5=C43)cc2)CC1	6.46
C[C@]12C[C@H](c3ccc(C(=O)NCCc4cccnc4)cc3)C3=C4CCC(=O)C=C4CC[C@H]3[C@@H]1CC[C@@]2(O)C(F)(F)C(F)(F)F	8.60

Data credit: patent US9109004B2
